System: KB cells
assayProtocol: cytotoxicity test, inhibition of cellular growth, KB cells
Format: cell-based
statedConditions: 10^−5M, triplicate
Below, each of the molecules is paired with its reported inhibition percentage of cellular growth value.
Hi! Could you send only the number? It should be in %, unit omitted.

Here's what some known entries look like.
| molecule | recordedMeasurement |
| --- | --- |
| COc1cc(C2c3cc4c(cc3C(NC(=O)C(F)(F)C3(O)OC(CO)C(O)C(O)C3O)C3COC(=O)C23)OCO4)cc(OC)c1OC (stereo not shown) [compound 27b] | 12 |
| COc1cc(C2c3cc4c(cc3C(NCC(F)(F)C3(O)OC(CO)C(O)C(O)C3O)C3COC(=O)C23)OCO4)cc(OC)c1OC (stereo not shown) [compound 32a] | 94 |

Task: State its inhibition percentage of cellular growth: COc1cc(C2c3cc4c(cc3C(NCC(F)(F)C3(O)OC5COC(C)OC5C(O)C3O)C3COC(=O)C23)OCO4)cc(OC)c1OC (stereo not shown) [compound 46a]
Output: 86

Task: State its inhibition percentage of cellular growth: COc1cc(C2c3cc4c(cc3C(NC(=O)C(F)(F)C3(O)OC5COC(C)OC5C(O)C3O)C3COC(=O)C23)OCO4)cc(OC)c1OC (stereo not shown) [29a]
Output: 66

====

System: MCF7R cells
assayProtocol: cytotoxicity test, inhibition of cellular growth, MCF7R cells
Assay type: cell-based
statedConditions: 10^−5M, triplicate
Could you label it satisfied if measured inhibition percentage of cellular growth is 40% or higher, and not satisfied otherwise?

Illustrative cases are given below, each with its answer.
| molecule | class |
| --- | --- |
| COc1cc(C2c3cc4c(cc3C(NC(=O)C(F)(F)C3(O)OC5COC(C)OC5C(O)C3O)C3COC(=O)C23)OCO4)cc(OC)c1OC (stereo not shown) [29a] | satisfied |
| COc1cc(C2c3cc4c(cc3C(NC(=O)C(F)(F)C3(O)OC(CO)C(O)C(O)C3O)C3COC(=O)C23)OCO4)cc(OC)c1OC (stereo not shown) [compound 27a] | satisfied |
| COc1cc(C2c3cc4c(cc3C(NC(=O)C(F)(F)C3(O)OC5COC(C)OC5C(O)C3O)C3COC(=O)C23)OCO4)cc(OC)c1OC (stereo not shown) [29b] | not satisfied |
| COc1cc([C@@H]2c3cc4c(cc3[C@@H](NC(=O)C(F)(F)[C@]3(O)O[C@H](CO)[C@@H](O)[C@H](O)[C@H]3O)[C@H]3COC(=O)[C@H]23)OCO4)cc(OC)c1O [compound 26a] | not satisfied |
| COc1cc([C@@H]2c3cc4c(cc3[C@@H](O[C@@H]3O[C@@H]5CO[C@@H](C)O[C@H]5[C@H](O)[C@H]3O)[C@H]3COC(=O)[C@H]23)OCO4)cc(OC)c1O [Etoposide, etoposide, reference compound] | not satisfied |

Task: Tell me whether inhibition percentage of cellular growth is at least 40% here: COc1cc(C2c3cc4c(cc3C(NC(=O)C(F)(F)C3(O)OC(CO)C(O)C(O)C3O)C3COC(=O)C23)OCO4)cc(OC)c1OC (stereo not shown) [compound 27b]
Output: not satisfied

Task: Tell me whether inhibition percentage of cellular growth is at least 40% here: COc1cc([C@@H]2c3cc4c(cc3[C@@H](NC(=O)C(F)(F)[C@]3(O)O[C@H](CO)[C@H](O)[C@H](O)[C@H]3O)[C@H]3COC(=O)[C@H]23)OCO4)cc(OC)c1O [compound 26b]
Output: not satisfied

====

Below, each of the compounds is paired with its reported inhibition percentage of cellular growth value.
Tested on: PC3 cells
assayProtocol: cytotoxicity test, inhibition of cellular growth, PC3 cells
Format: cell-based
statedConditions: 10^−5M, triplicate
Hi! Could you send only the number? It should be in %, unit omitted.

| compound | units | inhibition percentage of cellular growth |
| --- | --- | --- |
| COc1cc([C@@H]2c3cc4c(cc3[C@@H](O[C@@H]3O[C@@H]5CO[C@@H](C)O[C@H]5[C@H](O)[C@H]3O)[C@H]3COC(=O)[C@H]23)OCO4)cc(OC)c1O [Etoposide, etoposide, reference compound] | % | 47 |
| COc1cc(C2c3cc4c(cc3C(NC(=O)C(F)(F)C3(O)OC5COC(C)OC5C(O)C3O)C3COC(=O)C23)OCO4)cc(OC)c1OC (stereo not drawn) [29a] | % | 8 |

// switching to the query compound
Task: State its inhibition percentage of cellular growth: COc1cc([C@@H]2c3cc4c(cc3[C@@H](NC(=O)C(F)(F)[C@]3(O)O[C@H](CO)[C@@H](O)[C@H](O)[C@H]3O)[C@H]3COC(=O)[C@H]23)OCO4)cc(OC)c1O [compound 26a]
Output: 10

====

Tested on: A549 cells
assayProtocol: cytotoxicity test, inhibition of cellular growth, A549 cells
Type: cell-based
statedConditions: 10^−5M, triplicate
measuredAttribute: inhibition percentage of cellular growth (%)
Hi! Could you send only the number? It should be in %, unit omitted.

Here's what some known entries look like.
| compound | inhibition percentage of cellular growth (%) |
| --- | --- |
| COc1cc(C2c3cc4c(cc3C(NC(=O)C(F)(F)C3(O)OC5COC(C)OC5C(O)C3O)C3COC(=O)C23)OCO4)cc(OC)c1OC (stereo not shown) [29b] | 1 |
| COc1cc([C@@H]2c3cc4c(cc3[C@@H](NC(=O)C(F)(F)[C@]3(O)O[C@H](CO)[C@H](O)[C@H](O)[C@H]3O)[C@H]3COC(=O)[C@H]23)OCO4)cc(OC)c1O [compound 26b] | 7 |

Task: State its inhibition percentage of cellular growth: COc1cc(C2c3cc4c(cc3C(NC(=O)C(F)(F)C3(O)OC(CO)C(O)C(O)C3O)C3COC(=O)C23)OCO4)cc(OC)c1OC (stereo not shown) [compound 27a]
Output: 78

Task: State its inhibition percentage of cellular growth: COc1cc([C@@H]2c3cc4c(cc3[C@@H](NC(=O)C(F)(F)[C@]3(O)O[C@H](CO)[C@@H](O)[C@H](O)[C@H]3O)[C@H]3COC(=O)[C@H]23)OCO4)cc(OC)c1O [compound 26a]
Output: 23

Task: State its inhibition percentage of cellular growth: COc1cc(C2c3cc4c(cc3C(NC(=O)C(F)(F)C3(O)OC(CO)C(O)C(O)C3O)C3COC(=O)C23)OCO4)cc(OC)c1OC (stereo not shown) [compound 27b]
Output: 6

Task: State its inhibition percentage of cellular growth: COc1cc(C2c3cc4c(cc3C(NC(=O)C(F)(F)C3(O)OC5COC(C)OC5C(O)C3O)C3COC(=O)C23)OCO4)cc(OC)c1OC (stereo not shown) [29a]
Output: 6

Task: State its inhibition percentage of cellular growth: COc1cc([C@@H]2c3cc4c(cc3[C@@H](O[C@@H]3O[C@@H]5CO[C@@H](C)O[C@H]5[C@H](O)[C@H]3O)[C@H]3COC(=O)[C@H]23)OCO4)cc(OC)c1O [Etoposide, etoposide, reference compound]
Output: 65

====

Tested on: PC3 cells
assayProtocol: cytotoxicity test, inhibition of cellular growth, PC3 cells
Format: cell-based
statedConditions: 10^−5M, triplicate
measuredAttribute: inhibition percentage of cellular growth (%)
Hi! Could you send only the number? It should be in %, unit omitted.

Here's what some known entries look like.
| molecule | measurementTarget | units | inhibition percentage of cellular growth |
| --- | --- | --- | --- |
| COc1cc(C2c3cc4c(cc3C(NC(=O)C(F)(F)C3(O)OC(CO)C(O)C(O)C3O)C3COC(=O)C23)OCO4)cc(OC)c1OC (stereo not shown) [compound 27b] | PC3 cells | % | 8 |
| COc1cc(C2c3cc4c(cc3C(NC(=O)C(F)(F)C3(O)OC(CO)C(O)C(O)C3O)C3COC(=O)C23)OCO4)cc(OC)c1OC (stereo not shown) [compound 27a] | PC3 cells | % | 63 |
| COc1cc(C2c3cc4c(cc3C(NC(=O)C(F)(F)C3(O)OC5COC(C)OC5C(O)C3O)C3COC(=O)C23)OCO4)cc(OC)c1OC (stereo not shown) [29b] | PC3 cells | % | 3 |

// switching to the query molecule
Task: State its inhibition percentage of cellular growth: COc1cc([C@@H]2c3cc4c(cc3[C@@H](NC(=O)C(F)(F)[C@]3(O)O[C@H](CO)[C@H](O)[C@H](O)[C@H]3O)[C@H]3COC(=O)[C@H]23)OCO4)cc(OC)c1O [compound 26b]
Output: 8

====

Tested on: KB cells
assayProtocol: cytotoxicity test, inhibition of cellular growth, KB cells
Type: cell-based
statedConditions: 10^−5M, triplicate
Could you label it true if measured inhibition percentage of cellular growth is 10% or higher, and false otherwise?

Illustrative cases are given below, each with its answer.
| compound | measurementTarget | class |
| --- | --- | --- |
| COc1cc([C@@H]2c3cc4c(cc3[C@@H](NC(=O)C(F)(F)[C@]3(O)O[C@H](CO)[C@H](O)[C@H](O)[C@H]3O)[C@H]3COC(=O)[C@H]23)OCO4)cc(OC)c1O [compound 26b] | KB cells | true |
| COc1cc(C2c3cc4c(cc3C(NC(=O)C(F)(F)C3(O)OC5COC(C)OC5C(O)C3O)C3COC(=O)C23)OCO4)cc(OC)c1OC (centres unmarked) [29b] | KB cells | false |
| COc1cc([C@@H]2c3cc4c(cc3[C@@H](NC(=O)C(F)(F)[C@]3(O)O[C@H](CO)[C@@H](O)[C@H](O)[C@H]3O)[C@H]3COC(=O)[C@H]23)OCO4)cc(OC)c1O [compound 26a] | KB cells | true |
| COc1cc([C@@H]2c3cc4c(cc3[C@@H](O[C@@H]3O[C@@H]5CO[C@@H](C)O[C@H]5[C@H](O)[C@H]3O)[C@H]3COC(=O)[C@H]23)OCO4)cc(OC)c1O [Etoposide, etoposide, reference compound] | KB cells | true |

Next compound, please.
Task: Tell me whether inhibition percentage of cellular growth is at least 10% here: COc1cc(C2c3cc4c(cc3C(NC(=O)C(F)(F)C3(O)OC(CO)C(O)C(O)C3O)C3COC(=O)C23)OCO4)cc(OC)c1OC (centres unmarked) [compound 27a]
Output: true

Cited source for all entries: patent US8236935B2
